# Test system: NCI-H522 lung
# EXPERIMENTAL_DETAILS: NCI tumour cell line growth inhibition, 48 h
PROPERTY_MEASURED: GI50

Worked examples, 2 molecules total:
- RECORD_SMILES: "O=C(Nc1ccc(-n2cc(-c3ccncc3)c(-c3ccc(Cl)c(O)c3)n2)cc1)c1cc(Cl)cc(Cl)c1"
  EXPERIMENTAL_TARGET: "NCI-H522 lung"
  PROPERTY_MEASURED: "GI50"
  ENDPOINT_RESULT: "2310 nM"
- RECORD_SMILES: "C=CCSc1n[nH]c(-c2cccs2)n1"
  EXPERIMENTAL_TARGET: "NCI-H522 lung"
  PROPERTY_MEASURED: "GI50"
  ENDPOINT_RESULT: "> 100000 nM"

Pending molecule:
GI50 lookup needed for `O=C(N/N=C/c1cc2ccccc2c2ccccc12)c1cc(O)c(O)c(O)c1` , thanks. 2060 nM

====

# Test system: HCC-2998 colon
# EXPERIMENTAL_DETAILS: NCI tumour cell line growth inhibition, 48 h; in the data active = GI50 below about 0.43 µM; inactive = the rest
Allowed answers: active, inactive

Below are worked cases with known answers.
- MOLECULE: "N#Cc1cccc(Nc2nccc(-c3cnn4ncccc34)n2)c1"
  LABEL_CLASS: "active"
- MOLECULE: "COc1cc(/C=C2\\C(=O)N(c3c(Cl)cccc3Cl)c3ccccc32)cc(OC)c1O"
  LABEL_CLASS: "inactive"
- MOLECULE: "NC1=C(c2nc(-c3cc4ccccc4oc3=O)cs2)C(c2ccco2)c2c(c3ccccc3oc2=O)O1 (stereo not given)"
  LABEL_CLASS: "inactive"
- MOLECULE: "C/C=C(/C)C(=O)OC1C=C(CO)C(=O)C(OC(=O)/C(C)=C\\C)C1C(C)C (stereo not given)"
  LABEL_CLASS: "inactive"
- MOLECULE: "CS(=O)(=O)c1ccc(C(F)(F)F)cc1NC(=O)Nc1cnc(Oc2ccc(-c3cc(Cl)cnc3N)cc2)nc1"
  LABEL_CLASS: "inactive"
- MOLECULE: "CCOC(=O)c1cc(C(=O)c2cc(OC)cc(OC)c2)n2ncccc12"
  LABEL_CLASS: "inactive"

Query: recorded result category for `O=C(Oc1ccc([N+](=O)[O-])cc1)N1CCC(C(O)(c2ccc3c(c2)OCO3)c2ccc3c(c2)OCO3)CC1` in this test inactive

Query: recorded result category for `O=[N+]([O-])c1ccc2nc(N/N=C/c3ccc(O)cc3)sc2c1` in this test inactive

Query: recorded result category for O=C1Nc2ccccc2SC1C1SC(=S)N(Cc2ccccc2)C1=O (stereo not given) in this test inactive

Query: recorded result category for `CCOC(=O)c1c(C)c2c(n1C)CSc1cc(S(=O)(=O)c3ccccc3)c(=O)[nH]c1-2` in this test inactive

====

# Test system: SNB-75 CNS
# EXPERIMENTAL_DETAILS: NCI tumour cell line growth inhibition, 48 h
PROPERTY_MEASURED: GI50

- MOLECULE: "COC(=O)/C(=C/N1CCN(C(=O)c2ccco2)C1=S)C(C)=O"
  GI50: "21 µM"
- MOLECULE: "O=[N+]([O-])c1ccc(N(CCO)CCO)c2c1no[n+]2[O-]"
  GI50: "0.961 µM"
- MOLECULE: "O=C(Nc1ccc(-n2cc(-c3ccncc3)c(-c3ccc(Cl)c(O)c3)n2)cc1)c1cc(Cl)cc(Cl)c1"
  GI50: "2.79 µM"

Pending molecule:
GI50 lookup needed for O=C1Nc2ccccc2SC1C1SC(=S)N(Cc2ccccc2)C1=O (centres undefined) , thanks. 10.5 µM
